As shown below, each of these compounds has a reported IC50 value.
Molecular target: Recombinant human Cbl-b (aa 36-427) (Homo sapiens)
Sequence (Q13191 36-427): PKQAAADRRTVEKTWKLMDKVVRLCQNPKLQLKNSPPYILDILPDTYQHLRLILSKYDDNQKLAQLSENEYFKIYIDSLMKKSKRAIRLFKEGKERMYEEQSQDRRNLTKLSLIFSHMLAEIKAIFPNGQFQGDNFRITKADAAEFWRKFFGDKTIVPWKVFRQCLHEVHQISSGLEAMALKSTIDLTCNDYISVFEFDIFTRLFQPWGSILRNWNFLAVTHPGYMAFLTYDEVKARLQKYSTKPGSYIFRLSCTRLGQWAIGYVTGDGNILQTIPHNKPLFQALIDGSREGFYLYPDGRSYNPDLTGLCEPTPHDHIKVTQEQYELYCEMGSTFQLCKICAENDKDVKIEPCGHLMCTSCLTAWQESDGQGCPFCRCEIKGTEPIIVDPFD
Assay: Cbl-b Biochemical Assay (TR-FRET)
Conditions: read-out: TR-FRET hCbl-b IC50

As a guide, the following entries are already answered.
{"Compound": "Cn1cnnc1-c1cc(F)ccc1-c1cc(-c2nc3cc(C4(N)CC4)cc(F)c3o2)nc(C2CC2)c1", "IC50": "< 0.2 µM"}
{"Compound": "Cn1cnnc1-c1cc(F)ccc1-c1cccc(-c2nc3cc(CNCC(C)(C)F)cc(C(F)(F)F)c3[nH]2)c1", "IC50": "< 0.2 µM"}
{"Compound": "Cn1cnnc1-c1cc(F)ccc1-c1cccc(-c2nc3cc(CN[C@]4(C)CCC[C@@H]4O)cc(C(F)(F)F)c3o2)c1 (racemic)", "IC50": "< 0.2 µM"}
{"Compound": "Cn1cnnc1-c1cc(F)ccc1-c1cccc(-c2nc3cc(CNC[C@H](O)C(F)(F)F)cc(C(F)(F)F)c3o2)c1", "IC50": "< 0.2 µM"}
{"Compound": "COC(=O)c1cc(F)c2oc(-c3cc(-c4ccc(C#N)cc4-c4nncn4C)cc(C4CC4)n3)nc2c1", "IC50": "0.2 to 1 µM"}
{"Compound": "Cn1cnnc1-c1cc(F)ccc1-c1cccc(-c2nc3cc(CO)cc(C4CC4)c3o2)c1", "IC50": "< 0.2 µM"}
{"Compound": "Cc1cc([C@@H](C)NCC2CCC2)cc2nc(-c3cc(-c4ccc(F)cc4-c4nncn4C)cc(C4CC4)n3)oc12", "IC50": "< 0.2 µM"}

// switching to the query compound
Query :: Consider the compound "CCNc1cc(-c2c(-c3nncn3C)cnn2C)cc(-c2nc3ccc(C)c(C(F)(F)F)c3[nH]2)n1" and give its recorded IC50.
Result :: 10 to 50 µM

* * *

Molecular target: Recombinant human c-Cbl (aa 47-435) (Homo sapiens)
Sequence (P22681 47-435): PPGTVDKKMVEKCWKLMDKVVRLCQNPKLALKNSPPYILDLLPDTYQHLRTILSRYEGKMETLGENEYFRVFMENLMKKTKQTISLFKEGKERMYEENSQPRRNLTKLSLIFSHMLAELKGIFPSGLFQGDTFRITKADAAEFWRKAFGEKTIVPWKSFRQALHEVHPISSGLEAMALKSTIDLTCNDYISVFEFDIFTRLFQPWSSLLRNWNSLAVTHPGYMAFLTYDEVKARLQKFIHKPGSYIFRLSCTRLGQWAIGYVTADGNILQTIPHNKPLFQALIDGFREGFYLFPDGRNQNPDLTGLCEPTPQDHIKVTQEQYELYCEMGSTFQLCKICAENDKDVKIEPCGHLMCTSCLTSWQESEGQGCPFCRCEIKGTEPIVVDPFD
Test: c-Cbl Biochemical Assay (TR-FRET)
Settings: hc-Cbl Biochemical Assay (TR-FRET); read-out: TR-FRET hcCbl IC50
Readout: IC50

As a guide, the following entries are already answered.
{"Molecule": "Cn1cnnc1CC1(c2cccc(-c3cc(C(F)(F)F)cn(C)c3=O)c2)COC1 [CF-2]", "Study system": "Recombinant human c-Cbl (aa 47-435) (Homo sapiens)", "Readout": "IC50", "Value observed": "10000 to 50000 nM"}
{"Molecule": "CO[C@H]1CCCC1NCc1cc(C(F)(F)F)c2oc(-c3cccc(-c4ccc(F)cc4-c4nncn4C)c3)nc2c1 (stereo in doubt) [CV-2]", "Study system": "Recombinant human c-Cbl (aa 47-435) (Homo sapiens)", "Readout": "IC50", "Value observed": "< 200 nM"}
{"Molecule": "Cn1cnnc1-c1cc(F)ccc1-c1cccc(-c2nc3cccc(C(F)(F)F)c3[nH]2)c1 [BI-1]", "Study system": "Recombinant human c-Cbl (aa 47-435) (Homo sapiens)", "Readout": "IC50", "Value observed": "10000 to 50000 nM"}
{"Molecule": "Cn1cnnc1-c1cc(F)ccc1-c1cccc(-c2nc3cc(CN4CC[C@@H](C#N)C4)cc(C(F)(F)F)c3o2)c1 [DR-2]", "Study system": "Recombinant human c-Cbl (aa 47-435) (Homo sapiens)", "Readout": "IC50", "Value observed": "< 200 nM"}

Query :: GET IC50 where system = Recombinant human c-Cbl (aa 47-435) (Homo sapiens) and item = Cn1cnnc1-c1cc(F)ccc1-c1cccc(-c2nc3cc(CNCC4(O)COC4)cc(C(F)(F)F)c3o2)c1 [AC-2]
Result :: 1000 to 10000 nM

Query :: GET IC50 where system = Recombinant human c-Cbl (aa 47-435) (Homo sapiens) and item = COCCNCc1cc(C)c2oc(-c3cc(-c4ccc(F)cc4-c4nncn4C)cc(C4CC4)n3)nc2c1 [AEZ-1]
Result :: < 200 nM

Query :: GET IC50 where system = Recombinant human c-Cbl (aa 47-435) (Homo sapiens) and item = Cn1cnnc1-c1ccccc1-c1cccc(-c2nc3cc(CN[C@H]4CCC[C@@H]4O)cc(C(F)(F)F)c3o2)c1 [Example P-6]
Result :: 1000 to 10000 nM

Query :: GET IC50 where system = Recombinant human c-Cbl (aa 47-435) (Homo sapiens) and item = Cn1cnnc1-c1cc(F)ccc1-c1cccc(-c2nc3cc(CNCCC(F)F)cc(C(F)(F)F)c3o2)c1 [EW-2]
Result :: < 200 nM

Query :: GET IC50 where system = Recombinant human c-Cbl (aa 47-435) (Homo sapiens) and item = Cn1cnnc1-c1cc(F)ccc1-c1cccc(-c2nc3cc(CN[C@@H]4CCC[C@@H]4O)c(F)cc3o2)c1 [IP-7]
Result :: < 200 nM

Query :: GET IC50 where system = Recombinant human c-Cbl (aa 47-435) (Homo sapiens) and item = Cn1cnnc1-c1cc(F)ccc1-c1cccc(-c2nc3cc(CNCC4(C#N)CCOCC4)cc(C(F)(F)F)c3[nH]2)c1 [CT-2]
Result :: 200 to 1000 nM

Query :: GET IC50 where system = Recombinant human c-Cbl (aa 47-435) (Homo sapiens) and item = CCCNCc1cc(C(F)(F)F)c2oc(-c3cccc(-c4ccc(F)cc4-c4nncn4C)c3)nc2c1 [FL-2]
Result :: < 200 nM

Query :: GET IC50 where system = Recombinant human c-Cbl (aa 47-435) (Homo sapiens) and item = O[C@H]1CCC[C@H]1NCc1cc(C(F)(F)F)c2oc(-c3cccc(-c4ccc(F)cc4-c4nnco4)c3)nc2c1 [IG-6]
Result :: < 200 nM

Query :: GET IC50 where system = Recombinant human c-Cbl (aa 47-435) (Homo sapiens) and item = CCNc1cc(-c2ccc(F)cc2-c2nncn2C)cc(-c2nc3cc(C(=O)OC)cc(C(F)(F)F)c3o2)n1 [AEK-2]
Result :: 1000 to 10000 nM

Query :: GET IC50 where system = Recombinant human c-Cbl (aa 47-435) (Homo sapiens) and item = CCNc1cc(-c2c(-c3nncn3C)cnn2C)cc(-c2cc(C(F)(F)F)c[nH]c2=O)n1 [ACQ-3]
Result :: 1000 to 10000 nM

Query :: GET IC50 where system = Recombinant human c-Cbl (aa 47-435) (Homo sapiens) and item = Cc1cc(C(C)NCC2CCC2)cc2nc(-c3cc(-c4ccc(F)cc4-c4nncn4C)cc(C4CC4)n3)oc12 (centres unmarked) [AGU-1]
Result :: < 200 nM

Query :: GET IC50 where system = Recombinant human c-Cbl (aa 47-435) (Homo sapiens) and item = C[C@H](Cc1nncn1C)c1cccc(-c2nc3ccc(Br)c(C(F)(F)F)c3[nH]2)c1 [AV-9]
Result :: 10000 to 50000 nM

Query :: GET IC50 where system = Recombinant human c-Cbl (aa 47-435) (Homo sapiens) and item = COCCNCc1cc(OC)c2oc(-c3cccc(-c4ccc(F)cc4-c4nncn4C)c3)nc2c1 [EL-1]
Result :: < 200 nM
